- TARGET OF ASSAY: Cholinesterase (Equus caballus)
- CONDITION CONTEXT: at 2 mg/mL
- Description: Inhibition of horse BChE at 2 mg/ml by Ellman's method
Consider the following compounds; for each one, report its inhibition.
State just the number; it will be interpreted in %.

Which inhibition value belongs to CN1CCC[C@H]1c1cccnc1 ? 1.2

Subsequent entry: C=C1[C@H]2C[C@@]3([C@@H]1O)[C@@H](CC2=O)[C@]12[C@@H]4C[C@H]3[C@H]1N(CC)C[C@]4(C)CC[C@@H]2O 1.01

Subsequent entry: C=C1C[C@]23C[C@@]1(O)CC[C@H]2[C@@]12C=C[C@H](O)[C@@](C)(C(=O)O1)[C@H]2[C@@H]3C(=O)O -5.65

Subsequent entry: CCOC(=O)Oc1c(OC)cc(C(=O)O[C@@H]2C[C@@H]3CN4CCc5c([nH]c6cc(OC)ccc56)[C@H]4C[C@@H]3[C@H](C(=O)OC)[C@H]2OC)cc1OC -6.04
